Reference source: ChEMBL document CHEMBL1201862

- Test system: CCRF-CEM
- Test Description: NCI tumour cell line growth inhibition, 48 h
The source made the active and inactive calls. No stated cut-off is given here; in the data, active = GI50 up to about 1.1 µM and inactive = higher.
Quantity Name: GI50

IN: Give the reported value of GI50 for this record: `CCc1c(Cc2[nH]c(Cc3[nH]c(C=O)c(C)c3CC)c(CC)c2CC)[nH]c(C=O)c1C`
OUT: 66.7 µM (inactive)

IN: Give the reported value of GI50 for this record: `CC/C=C(\C(=C/CC)[N+](=O)[O-])[N+](=O)[O-]`
OUT: 8.22 µM (inactive)

IN: Give the reported value of GI50 for this record: `COc1cccc(CCn2c(N)c(C#N)c3ccc([N+](=O)[O-])cc3c2=O)c1`
OUT: 4.35 µM (inactive)

IN: Give the reported value of GI50 for this record: Cc1cccc(C(=O)O)c1CC1NCCC2c3ccccc3NC12 (stereo not drawn)
OUT: > 100 µM (inactive)

IN: Give the reported value of GI50 for this record: CC(CO)(CO)N1C(=O)C2C3C=CC(C3)C2C1=O (stereo not drawn)
OUT: > 100 µM (inactive)

IN: Give the reported value of GI50 for this record: `Cc1c(S(=O)(=O)/N=C(\NN)Nc2ccc(Cl)cc2)sc2ccc(Cl)cc12`
OUT: 16.3 µM (inactive)

IN: Give the reported value of GI50 for this record: CC1CC/C(=C\c2ccc(F)cc2)C2=C1C(c1ccc(F)cc1)n1c(s/c(=C\c3ccc(Cl)cc3)c1=O)=N2 (stereo not drawn)
OUT: > 100 µM (inactive)

IN: Give the reported value of GI50 for this record: `CCCN(CCC)C(=S)N/N=C(/C)c1ccccc1O`
OUT: 2.96 µM (inactive)

---

Assignment: determine reported GI50 for the given compounds.
- System: HOP-62
- Test Description: NCI tumour cell line growth inhibition, 48 h
Active and inactive are the calls of the source. Cut-off read from the data, not from the text of the source: active = GI50 up to about 1.1 µM and inactive = higher.

IN: Give the reported value of GI50 for this record: CC(=O)C1C(=O)N(C(C)C)C[C@@H]2CCC(=O)C[C@H]12 (stereo not given in full)
OUT: > 100 µM (inactive)

IN: Give the reported value of GI50 for this record: `CCCn1cnc2c(SCC(=O)O)nc(N)nc21`
OUT: > 100 µM (inactive)

IN: Give the reported value of GI50 for this record: `CC1=C(C(=O)NC2CCCCC2)CC(C(=O)NC2CCCCC2)=C(C)N1`
OUT: > 100 µM (inactive)

IN: Give the reported value of GI50 for this record: `NCCCNCCS`
OUT: > 100 µM (inactive)

IN: Give the reported value of GI50 for this record: `COc1ccc(/C=c2/s/c(=C(\C#N)c3nc4ccccc4[nH]3)n(-c3ccccc3)c2=O)cc1`
OUT: 17.1 µM (inactive)

IN: Give the reported value of GI50 for this record: `CC1=C(C(=O)Nc2cccc(C(F)(F)F)c2)C(c2ccc(O)cc2)C(C(=O)Nc2cccc(C(F)(F)F)c2)=C(C)N1`
OUT: 19.5 µM (inactive)

IN: Give the reported value of GI50 for this record: `Cc1cc(NS(=O)(=O)c2ccc(Nc3c4ccccc4nc4c(C(=O)NCCN(C)C)cccc34)cc2)no1`
OUT: 2.09 µM (inactive)

IN: Give the reported value of GI50 for this record: `CCNCCCCNCC`
OUT: > 3750 µM (inactive)

IN: Give the reported value of GI50 for this record: CCOC(=O)C(SCCO)C(C(=O)OCC)n1ccc(=O)[nH]c1=O (stereo not given)
OUT: > 60.7 µM (inactive)

IN: Give the reported value of GI50 for this record: `O=C1OC(c2ccccc2Br)=N/C1=C/c1ccccc1`
OUT: 21.5 µM (inactive)

IN: Give the reported value of GI50 for this record: `COC(=O)c1ccc(/C=C/S(=O)(=O)c2ccccc2)cc1`
OUT: > 100 µM (inactive)

IN: Give the reported value of GI50 for this record: Nc1cc(O)nc(SC2=NC(N)CC(O)C2)n1 (stereo not given)
OUT: > 100 µM (inactive)

IN: Give the reported value of GI50 for this record: CC1=CCC2CC1C(C(=O)c1c[nH]c3ccccc13)=NC2(C)C (stereo not given)
OUT: > 100 µM (inactive)

IN: Give the reported value of GI50 for this record: CC1C=C[C@H](Sc2ccccc2)CC[C@@]1(C)O (stereo not given in full)
OUT: > 100 µM (inactive)

IN: Give the reported value of GI50 for this record: `CC1(C)CC(C#Cc2ccccc2)CC(C)(C)N1O`
OUT: 16.4 µM (inactive)

IN: Give the reported value of GI50 for this record: COC(=O)C1C(=O)O[C@@H](c2ccc(OC)cc2OC)C1C(=O)OC (stereo not given in full)
OUT: > 100 µM (inactive)

IN: Give the reported value of GI50 for this record: `COc1ccc2cc(CNCCCCCCNCc3ccc4cc(OC)ccc4c3)ccc2c1`
OUT: 1.64 µM (inactive)

IN: Give the reported value of GI50 for this record: `CC(C)/C(=N\[N+](C)(C)C)c1ccccc1`
OUT: > 100 µM (inactive)

IN: Give the reported value of GI50 for this record: `CC(=O)n1nnc2ccc([N+](=O)[O-])cc21`
OUT: > 100 µM (inactive)

IN: Give the reported value of GI50 for this record: `O=C(NS(=O)(=O)OCC(Cl)(Cl)Cl)SCCC(F)(F)C(F)(F)C(F)(F)C(F)(F)C(F)(F)C(F)(F)F`
OUT: 28.2 µM (inactive)
